# SYSTEM: CDK9/CycT (Homo sapiens, UniProt P50750)
# Sequence (P50750 whole entry): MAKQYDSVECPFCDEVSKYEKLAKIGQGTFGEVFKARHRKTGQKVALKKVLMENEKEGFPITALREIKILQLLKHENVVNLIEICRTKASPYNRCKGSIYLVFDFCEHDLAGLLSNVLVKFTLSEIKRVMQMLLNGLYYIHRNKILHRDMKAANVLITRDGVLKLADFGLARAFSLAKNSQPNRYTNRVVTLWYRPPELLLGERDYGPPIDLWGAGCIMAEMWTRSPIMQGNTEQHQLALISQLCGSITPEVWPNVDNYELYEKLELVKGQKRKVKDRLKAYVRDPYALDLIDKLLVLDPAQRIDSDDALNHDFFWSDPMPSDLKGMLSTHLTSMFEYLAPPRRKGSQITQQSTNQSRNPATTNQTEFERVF
# Sequence (O60563 whole entry partner): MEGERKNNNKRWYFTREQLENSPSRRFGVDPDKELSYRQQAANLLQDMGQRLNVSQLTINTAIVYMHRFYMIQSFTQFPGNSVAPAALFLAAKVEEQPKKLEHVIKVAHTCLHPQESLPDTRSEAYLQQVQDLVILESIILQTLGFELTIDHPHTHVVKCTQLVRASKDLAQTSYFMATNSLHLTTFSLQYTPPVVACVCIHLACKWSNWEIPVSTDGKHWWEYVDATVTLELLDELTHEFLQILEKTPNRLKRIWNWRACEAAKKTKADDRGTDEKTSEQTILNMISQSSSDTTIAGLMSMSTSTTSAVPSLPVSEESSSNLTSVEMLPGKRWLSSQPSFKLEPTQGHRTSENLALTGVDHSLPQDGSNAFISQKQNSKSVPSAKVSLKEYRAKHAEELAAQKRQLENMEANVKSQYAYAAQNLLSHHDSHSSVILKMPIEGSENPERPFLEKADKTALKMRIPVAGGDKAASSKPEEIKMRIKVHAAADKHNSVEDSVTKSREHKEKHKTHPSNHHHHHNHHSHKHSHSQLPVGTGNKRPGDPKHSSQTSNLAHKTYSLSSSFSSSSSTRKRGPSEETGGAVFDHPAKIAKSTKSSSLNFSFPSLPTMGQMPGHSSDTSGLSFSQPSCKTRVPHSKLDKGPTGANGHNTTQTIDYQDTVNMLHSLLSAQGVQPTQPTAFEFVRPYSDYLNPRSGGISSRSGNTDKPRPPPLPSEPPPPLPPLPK
# ASSAY_NOTES: CDK9/CycT inhibition (Tables A1, A2)
pIC50: −log10 of the molar value.
OBSERVED_PROPERTY: pIC50

Past entries and their recorded results:
C=CC(=O)Nc1cccc(Nc2nc(N[C@H]3CC[C@@H](N(C)C)CC3)nc3c2ncn3C(C)C)c1 [E-1(SB1-E-14)]
5.87
C=CC(=O)Nc1ccc(C(=O)Nc2cccc(Nc3nc(N4CCCCC4CCO)nc4c(CC)cnn34)c2)cc1 (stereo not drawn) [SB1-E-19]
6.91
CC(C)n1cnc2c(Nc3cccc(NC(=O)c4ccc(NC(=O)/C=C/CN(C)C)cc4)c3)nc(N[C@H]3CC[C@H](N(C)C)CC3)nc21 [THZ-3-49-1]
6.35

P = C=CC(=O)Nc1cccc(CNc2nc(N[C@H]3CC[C@H](N(C)C)CC3)nc3c(CC)cnn23)c1 [MFH-2-67-1]
Q = CC(C)n1cnc2c(Nc3cccc(NC(=O)/C=C/CN(C)C)c3)nc(N[C@H]3CC[C@H](N(C)C)CC3)nc21 [THZ-5-18-1]
R = C=CC(=O)Nc1cccc(Nc2cc(N[C@H]3CC[C@H](N(C)C)CC3)nc3c(C(C)C)cnn23)c1 [SB1-E-26]
Enquiry: Hey, quick one: sort these by pIC50, low to high? Rank the items, then write their labels in that order.
Return: Q, R, P
(Q: 5.82, R: 6.37, P: 6.99)

###

# SYSTEM: CDK9/CycT (Homo sapiens, UniProt P50750)
# ASSAY_NOTES: CDK9/CycT inhibition (Tables A1, A2)
# Format: biochemical
pIC50: −log10 of the molar value.
OBSERVED_PROPERTY: pIC50

Past entries and their recorded results:
C=CC(=O)Nc1cccc(Nc2nc(N3CCCCC3CCO)nc3c(CC)cnn23)c1 (centres unmarked)
7.38
C=CC(=O)Nc1ccc(C(=O)Nc2cccc(Nc3cc(N[C@H]4CC[C@H](N(C)C)CC4)nc4c(CC)cnn34)c2)cc1
7.05
C=CC(=O)Nc1ccc(C(=O)N2CCCC(Nc3nc(N4CCCCC4CCO)nc4c3ncn4C(C)C)C2)cc1 (centres unmarked)
5.64
C=CC(=O)Nc1ccc(Nc2cc(N3CCCC[C@H]3CCO)nc3c(CC)cnn23)cc1
7.63
C=CC(=O)NC1CCCC(Nc2cc(N3CCCC[C@H]3CCO)nc3c(CC)cnn23)C1 (some centres unmarked)
7.61
C=CC(=O)Nc1ccc(C(=O)Nc2cccc(Nc3cc(N4CCCCC4CCO)nc4c(CC)cnn34)c2)cc1 (centres unmarked)
6.85

a = C=CC(=O)N[C@H]1CC[C@@H](Nc2cc(N3CCCC[C@H]3CCO)nc3c(CC)cnn23)CC1
b = C=CC(=O)Nc1cccc(Nc2nc(N3CCCC[C@H]3CCO)nc3c(CC)cnn23)c1
Enquiry: Between the entries labelled a and b , which has a larger pIC50 value on record? Answer by stating the label of the chosen item.
Return: b

###

# SYSTEM: CDK7/CycH (Homo sapiens)
# Sequence (P50613 whole entry): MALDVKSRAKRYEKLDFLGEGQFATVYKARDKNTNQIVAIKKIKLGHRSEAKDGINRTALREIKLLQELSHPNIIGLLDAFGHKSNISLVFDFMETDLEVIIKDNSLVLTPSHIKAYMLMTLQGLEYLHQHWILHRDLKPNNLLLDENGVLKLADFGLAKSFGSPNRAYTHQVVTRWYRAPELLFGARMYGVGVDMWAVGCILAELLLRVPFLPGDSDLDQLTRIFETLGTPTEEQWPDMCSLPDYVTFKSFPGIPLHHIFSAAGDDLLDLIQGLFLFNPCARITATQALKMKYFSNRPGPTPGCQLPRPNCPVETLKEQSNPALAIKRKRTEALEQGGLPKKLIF
# Sequence (P51946 whole entry partner): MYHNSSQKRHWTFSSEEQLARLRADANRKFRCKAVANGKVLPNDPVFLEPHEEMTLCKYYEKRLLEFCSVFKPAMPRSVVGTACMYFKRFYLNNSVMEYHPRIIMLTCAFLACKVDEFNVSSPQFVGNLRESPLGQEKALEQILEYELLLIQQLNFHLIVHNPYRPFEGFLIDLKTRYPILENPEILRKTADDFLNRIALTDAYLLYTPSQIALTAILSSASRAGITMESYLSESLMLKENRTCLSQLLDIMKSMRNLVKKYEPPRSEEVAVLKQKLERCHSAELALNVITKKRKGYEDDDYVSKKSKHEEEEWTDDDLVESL
# ASSAY_NOTES: CDK7/CycH inhibition (Tables A1, A2)
pIC50: −log10 of the molar value.
OBSERVED_PROPERTY: pIC50

C=CC(=O)Nc1cccc(Nc2cc(N[C@H]3CC[C@H](N(C)C)CC3)nc3c(CC)cnn23)c1 [SB1-E-21]
5.92

a = C=CC(=O)Nc1ccc(C(=O)Nc2cccc(Nc3cc(N[C@H]4CC[C@H](N(C)C)CC4)nc4c(CC)cnn34)c2)cc1 [SB1-E-22]
b = C=CC(=O)Nc1cccc(Nc2nc(N3CCCCC3CCO)nc3c2ncn3C(C)C)c1 (stereo not shown) [THZ-4-134-1]
Enquiry: Kindly compare a with b and tell me which has the lower pIC50 figure. Answer by stating the label of the chosen item.
Return: b
(b: 5.93, a: 6.61)
